molecular target: CYP2C8 (Homo sapiens, UniProt P10632); construct: Human liver microsomes; from tissue; host or cells: human liver microsomes; assay: Cytochrome P450 Inhibition (CYP panel); assay type: in vitro ADME; settings: probe paclitaxel; CYP2C8 (paclitaxel sub.); Human liver microsomes; 10 μM; read-out: % Inhibition of Control Values
Sequence (P10632 whole entry): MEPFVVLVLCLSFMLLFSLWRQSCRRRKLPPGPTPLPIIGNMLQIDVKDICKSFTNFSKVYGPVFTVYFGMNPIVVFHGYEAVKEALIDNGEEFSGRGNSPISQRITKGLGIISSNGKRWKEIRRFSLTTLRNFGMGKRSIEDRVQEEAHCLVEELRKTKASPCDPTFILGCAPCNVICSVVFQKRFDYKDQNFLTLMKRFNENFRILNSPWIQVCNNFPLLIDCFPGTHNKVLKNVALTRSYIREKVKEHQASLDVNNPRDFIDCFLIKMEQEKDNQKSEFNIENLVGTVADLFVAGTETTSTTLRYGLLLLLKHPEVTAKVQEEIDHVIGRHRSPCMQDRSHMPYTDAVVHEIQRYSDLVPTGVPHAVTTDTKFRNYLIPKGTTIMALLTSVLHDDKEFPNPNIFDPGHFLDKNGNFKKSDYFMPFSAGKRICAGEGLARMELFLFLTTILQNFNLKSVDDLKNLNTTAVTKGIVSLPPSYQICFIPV
Item-by-item account of inhibition at 10 µM
Give the number first and the unit second.

Challenge: What does the data say about its inhibition at 10 µM? Entry: CC(C)=CCC[C@H](CO)[C@@H]1CC[C@@H](C)c2c1cc(C)c(O)c2O [Compound 1, 7,8,18-trihydroxyserrulat-14-ene]
Response given: 76%

Challenge: And what about the compound CC(C)=CCC[C@@H]1C(O)Oc2c(C)cc(O)c3c2[C@H]1CC[C@H]3C (stereo partly drawn) ?
Response given: 52%

Challenge: Query CC(C)=CCC[C@H](C)[C@@H]1CC[C@@H](C)c2c1cc(C)c(O)c2O [Compound 4, 7,8-dihydroxyserrulat-14-ene] next
Response given: 61%

====

Form field: IC50 (one value per entry).
tested on: 280 human cancer cell lines; assay: OncoPanel cell proliferation assay (10-day); type: cell-based; details: Homo sapiens, CCRF-CEM, CCRFCEM, Leukemia; read-out: Cell Count IC50
Answer in µM, number only, no unit symbol.

// solved cases for IC50 follow
| compound | unit.text | quantitative.readout |
| --- | --- | --- |
| CC(C)=CCC[C@@H]1C(O)Oc2c(C)cc(O)c3c2[C@H]1CC[C@H]3C (stereo partly drawn) | µM | 11.5 |
| CC(C)=CCC[C@H](C)[C@@H]1CC[C@@H](C)c2c1cc(C)c(O)c2O [Compound 4, 7,8-dihydroxyserrulat-14-ene] | µM | 4.93 |

Challenge: Entry CC(C)=CCC[C@H](CO)[C@@H]1CC[C@@H](C)c2c1cc(C)c(O)c2O [Compound 1, 7,8,18-trihydroxyserrulat-14-ene] has what IC50?
Response given: 4.73

====

molecular target: ASH1L (h) bromodomain (Homo sapiens, UniProt Q9NR48); construct: ASH1L (h) bromodomain; assay: Epigenetic binding assay, Bromodomain; conditions: Table 4; read-out: Reference IC50
reported.metric: IC50 (µM)
Express your answer in µM, writing the number without its unit.

Challenge: Please look up its IC50: Cc1sc2c(c1C)C(c1ccc(Cl)cc1)=N[C@@H](CC(=O)OC(C)(C)C)c1nnc(C)n1-2 [JQ-1, reference compound]
Response given: 13.8

====

molecular target: CYP2C9 (Homo sapiens, UniProt P11712); construct: Human liver microsomes; from tissue; host or cells: human liver microsomes; assay: Cytochrome P450 Inhibition (CYP panel); assay type: in vitro ADME; conditions: human liver microsomes, probe diclofenac, read-out: % Inhibition of Control Values
Sequence (P11712 whole entry): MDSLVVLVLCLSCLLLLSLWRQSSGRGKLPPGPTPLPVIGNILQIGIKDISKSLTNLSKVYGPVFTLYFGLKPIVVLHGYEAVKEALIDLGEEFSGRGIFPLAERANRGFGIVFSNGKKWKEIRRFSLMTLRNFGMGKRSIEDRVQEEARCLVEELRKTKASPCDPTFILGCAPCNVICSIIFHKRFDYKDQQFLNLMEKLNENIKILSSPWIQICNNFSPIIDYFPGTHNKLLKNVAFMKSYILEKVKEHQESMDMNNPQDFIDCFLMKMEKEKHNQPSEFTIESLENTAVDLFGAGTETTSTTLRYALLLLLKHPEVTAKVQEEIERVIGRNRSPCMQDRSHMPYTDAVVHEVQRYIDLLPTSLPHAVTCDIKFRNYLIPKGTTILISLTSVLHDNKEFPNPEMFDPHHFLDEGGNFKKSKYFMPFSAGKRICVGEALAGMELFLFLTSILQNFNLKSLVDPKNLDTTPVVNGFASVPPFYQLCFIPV
reported.metric: inhibition at 10 µM (%)
The figure you give is taken to be in %; do not add the unit.

Challenge: Need inhibition at 10 µM of CC(C)=CCC[C@@H]1C(O)Oc2c(C)cc(O)c3c2[C@H]1CC[C@H]3C (stereo partly drawn) , thanks.
Response given: 72

Challenge: // next record CC(C)=CCC[C@H](CO)[C@@H]1CC[C@@H](C)c2c1cc(C)c(O)c2O [Compound 1, 7,8,18-trihydroxyserrulat-14-ene]
Response given: 77

Challenge: Input CC(C)=CCC[C@H](C)[C@@H]1CC[C@@H](C)c2c1cc(C)c(O)c2O [Compound 4, 7,8-dihydroxyserrulat-14-ene]
Response given: 91
